Hello, the source for this data is PubChem BioAssay (NCI), in case you need it.

assay: NCI Yeast Anticancer Drug Screen. Data for the cln2 rad14 strain (AID 165);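 note: 0% = growth equal to vehicle treated cultures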; conditions: S. cerevisiae cln2 rad14 strain, at 5.0 µM (retest, dose inferred, filed as 0.5), stronger effect = higher value
About 79,000 compounds went through this panel and 15% of them were active in at least one assay; those are over-represented in the sample as a whole.
Exercise: for every item that follows, state its recorded growth inhibition.
Answers are plain numbers, in %.

Take a look at these entries with their results.
CC[C@](O)(CC(=O)O[C@H]1C(=O)O[C@@H]2C[C@H]3C(C)=CC(=O)[C@@H](O)[C@]3(C)[C@H]3[C@@]4(O)OC[C@]32[C@@H]1[C@@H](C)[C@H]4O)C(C)C    58
N#CC1(C2SCCS2=O)C2=C(C(=O)c3ccccc3C2=O)N2CCCC21 (stereo not given)    14
COc1ccc(/C=C/C(=O)CCN2CCN(CCC(=O)/C=C/c3ccc(OC)cc3)CC2)cc1    -20
Cc1ccc(S(=O)(=O)Nc2cc(S(=O)(=O)O)c(N)c3c2C(=O)c2ccccc2C3=O)cc1    43

Please go through the list and note growth inhibition for each compound.
1. NNc1ccc2ccccc2c1
2. O=C1/C(=C\c2ccc([N+](=O)[O-])cc2)Sc2scc(-c3ccc(O)c(O)c3)[n+]21
3. O=C1c2ccccc2C(=O)N1CC[P+](c1ccccc1)(c1ccccc1)c1ccccc1
4. O=c1c(Cl)c(Cl)cnn1CCCl

Found:
[16, -4, -5, 6]

List the reported growth inhibition of each compound below.
1. O=C(NNc1ccnc2cc(Cl)ccc12)/C(=C/c1ccc2c(c1)OCO2)NC(=O)c1ccccc1
2. Nc1ccc(Cc2ccc(Br)cc2)cc1

Found:
1: 2; 2: 8
